- TEST_DETAILS: GST activity toward herbicide metolachlor (HPLC-based assay)
- Assay type: biochemical
- CONDITION: recombinant wheat GST expressed in E. coli, affinity purified; ± standard error
Exercise: for every item that follows, state its recorded GST activity toward metolachlor.
Give bare numbers, in nkat.mg^−1.

These recorded examples may help you get a feel for the data.
{"columns": ["MOLECULE", "GST activity toward metolachlor [nkat.mg^−1]"],
 "data": [
  ["TA 27: recombinant wheat GST from cloquintocet-mexyl-induced cDNA, SEQ ID No. 13, amino acid SEQ ID No. 14, expressed from pET 11a (protein, Triticum aestivum L.) MEPMKVYGWAVSPWMARVLVSLEEAGADYELVPMSRNGGDHRRPEHLARNPFGEIPVLEYGGLTLYQSRAIARHILRKHKPGLLGAGSLEESAMVDVWVDVDAHHLEPVLKPIVWNCIINPFVGRDVDQGLVDESVEKLKKLLEVYEARLSSNKYLAGDFVSFADLTHFSFMRYFMATEHAVVLDAYPHVKAWWKALLARPSVKKVIAGMPPDFGFGSGRIP", 0.063],
  ["WIC 2: recombinant type I wheat GST, SEQ ID No. 5, amino acid SEQ ID No. 6 (protein, Triticum aestivum L.) MAPAVKVYGWAVSPFVARPLLCLEEAGVEYELVSMSRAAGDHRQPDFLARNPFGQVPVLEDGDLTLFESRAIARHVLRKHKPELLGCGSPEAEAMVDVWLEVEAHQYNPAASAIVVQCIILPLLGGARDQAVVDENVAKLKKVLEVYEARLSASRYLAGDDISLADLSHFPFTRYFMETEYAPLVAELPHVNAWWEGLKARPAARKVTELMPPDLGLGKKAE", 0.512]
]}

Continue with the molecule presented below.
Annotate the molecule WIC 4: recombinant type I wheat GST, SEQ ID No. 11, amino acid SEQ ID No. 12; coding sequence identical in WIC 10 (protein, Triticum aestivum L.) MAPVKVFGPAMSTNVARVLVCLEEVGAEYEVVDIDFKAMEHKSPEHLVRNPFGQIPAFQDGDLLLFESRAIARYVLRKYKKNEVDLLREGDLKEAAMVDVWTEVDAHTYNPAISPIVYECSSTAHARLPTNQTVVDESLEKLKNVLEVYEARLSKHDYLAGDFVSFADLNHFPYTFYFMATPHAALFDSYPHVKAWWERIMARPAVKKLAAQMVPKKP with its measured GST activity toward metolachlor.
0.037
